Listed below are compounds with pIC50 for Protein kinase C theta type (Homo sapiens), each taken from published literature.
pIC50: −log10 of the molar value.
EXPERIMENTAL ENDPOINT: pIC50

>>> test_result("CN1CCN(CCC#Cc2csc3ncc(C#N)c(Nc4ccc5[nH]ccc5c4)c23)CC1")
6.25
>>> test_result("C=C/C=C/c1cc2c(Nc3ccc4[nH]ccc4c3)c(C#N)cnc2s1")
6.70
>>> test_result("O=[N+]([O-])c1cnc(NCC2CCNCC2)nc1NCc1ccccc1OC(F)(F)F")
6.52
>>> test_result("Cc1c(Nc2c(C#N)cnc3sc(-c4ccccc4F)cc23)ccc2[nH]ccc12")
6.93
>>> test_result("COc1ccc(Nc2ncc(Cl)c(NC3CC(C)(C)N(C)C(C)(C)C3)n2)cc1Cl")
8.30
>>> test_result("Cc1c(Nc2c(C#N)cnc3sc(-c4ccc(F)c(C(=O)N(C)C)c4)cc23)ccc2[nH]ccc12")
7.23
>>> test_result("Cc1c(Nc2c(C#N)cnc3sc(C(=O)NCCc4ccccc4)cc23)ccc2[nH]ccc12")
6.73
>>> test_result("N#Cc1cnc2sc(C(=O)N3CCCC3)cc2c1Nc1ccc2[nH]ccc2c1")
5.98

---

Listed below are molecules with IC50 for Protein kinase C theta type (Homo sapiens, UniProt Q04759), each taken from published literature.
Lab note - cut at 100 nM for IC50: rule met if strictly below, rule not met if not.

>>> discrete_label("CN(C)Cc1ncc2n1CCN(c1nc(C3=C(c4c[nH]c5sccc45)C(=O)NC3=O)c3ccccc3n1)C2")
"rule met"
>>> discrete_label("CCCOc1c(C=O)cc(C)cc1-c1cc2c(Nc3ccc4[nH]ccc4c3C)c(C#N)cnc2s1")
"rule not met"
>>> discrete_label("COc1ccc(Nc2c(C#N)cncc2-c2cc3cc(CN4CCCCC4)ccc3o2)c(C)c1")
"rule not met"
>>> discrete_label("CN1C(C)(C)CC(Nc2nc(Nc3ccc(F)c(C#N)c3)ncc2F)CC1(C)C")
"rule met"
>>> discrete_label("CCN1C(=O)C(C)(C)Oc2cc(Nc3ncc(Br)c(NC4CC(C)(C)N(C)C(C)(C)C4)n3)ccc21")
"rule met"
>>> discrete_label("CN(C)CCNC(=O)c1cccc(-c2cc3c(Nc4ccc5[nH]ccc5c4)c(C#N)cnc3s2)c1")
"rule not met"
>>> discrete_label("Cc1c(Nc2c(C#N)cnc3sc(C(=O)N4CCNCC4)cc23)ccc2[nH]ccc12")
"rule not met"
>>> discrete_label("CN(C)C(=O)c1cccc(-c2cc3c(Nc4cccc5[nH]ccc45)c(C#N)cnc3s2)c1")
"rule not met"

---

Listed below are molecules with IC50 for Protein kinase C theta type (Homo sapiens, UniProt Q04759), each taken from published literature.
EXPERIMENTAL ENDPOINT: IC50 (nM)

>>> test_result("N#Cc1cnc2sc(-c3cccc(CN)c3)cc2c1Nc1ccc2[nH]ccc2c1")
38
>>> test_result("CS(=O)(=O)Nc1ccccc1-c1cc2c(Nc3ccc4[nH]ccc4c3)c(C#N)cnc2s1")
1010
>>> test_result("N#Cc1cnc2sc(-c3cccc(CN(CCO)CCO)c3)cc2c1Nc1ccc2[nH]ccc2c1")
77
>>> test_result("Cc1c(Nc2c(C#N)cnc3sc(-c4ccccc4OC[C@@H](C)O)cc23)ccc2[nH]ccc12")
105
>>> test_result("CN(C)Cc1cccc(-c2cc3c(Nc4ccncc4)c(C#N)cnc3s2)c1")
16400
>>> test_result("N#Cc1cnc2sc(-c3ccccc3)cc2c1Nc1ccc2[nH]ccc2c1")
460
>>> test_result("N#Cc1cnc2sc(-c3cccc(CN4CCC(O)CC4)c3)cc2c1Nc1ccc2[nH]ccc2c1")
170
>>> test_result("Cc1ccc(Nc2ncc(F)c(NC3CC(C)(C)N(C)C(C)(C)C3)n2)cc1Br")
32.6
>>> test_result("Cc1c(Nc2c(C#N)cnc3sc(/C=C/C(=O)N4CC[C@H](N(C)C)C4)cc23)ccc2[nH]ccc12")
171
>>> test_result("CN1CCN(CCCCc2cc3c(Nc4ccc5[nH]ccc5c4)c(C#N)cnc3s2)CC1")
983
>>> test_result("COc1ccc(-c2c(C)ncc(C#N)c2Nc2cc(Cl)c3[nH]ccc3c2C)cc1OC")
84
>>> test_result("Cc1ncc(C#N)c(Nc2ccc3[nH]ccc3c2C)c1-c1ccc(OCCNCc2cccnc2)cc1")
64
>>> test_result("CN(C)CC#Cc1cc2c(Nc3ccc4[nH]ccc4c3)c(C#N)cnc2s1")
1400
>>> test_result("N#Cc1cnc2sc(-c3ccc(CN)cc3)cc2c1Nc1ccc2[nH]ccc2c1")
27
>>> test_result("Cc1c(Nc2c(C#N)cnc3sc(/C=C/C(=O)Nc4cccnc4)cc23)ccc2[nH]ccc12")
17
>>> test_result("Cc1c(Nc2c(C#N)cnc3sc(/C=C/C(=O)N4CCOCC4)cc23)ccc2[nH]ccc12")
53
>>> test_result("Clc1cccc(-c2cnc3ccc(NCCN4CCCC4)nn23)c1")
1700
>>> test_result("Cc1c(Nc2c(C#N)cnc3sc(C4=CCCCC4)cc23)ccc2[nH]ccc12")
324
>>> test_result("CN1C(C)(C)CC(Nc2nc(Nc3ccc(N4CCN(S(C)(=O)=O)CC4)c(Cl)c3)ncc2C(F)(F)F)CC1(C)C")
4.56
>>> test_result("Cc1c(Nc2c(C#N)cnc3sc(C#Cc4ccc(CN(C)C)o4)cc23)ccc2[nH]ccc12")
25
>>> test_result("Cc1ncc(C#N)c(Nc2ccc3[nH]ccc3c2C)c1-c1cccc(CN(C)C)c1")
42
>>> test_result("COc1ccc(-c2cncc(C#N)c2Nc2cc(OC)c(OC)c(OC)c2)cc1OC")
1950
>>> test_result("Cc1c(Nc2c(C#N)cnc3sc(C#CCCN4CCN(C)CC4)cc23)ccc2[nH]ccc12")
126
>>> test_result("Cc1c(Nc2c(C#N)cnc3sc(/C=C/C(=O)Nc4ccccc4)cc23)ccc2[nH]ccc12")
111
>>> test_result("CN1C(C)(C)CC(Nc2nc(Nc3ccc4c(c3)oc(=O)n4CC3CC3)ncc2F)CC1(C)C")
6.1
>>> test_result("Cc1c(Nc2c(C#N)cnc3sc(-c4cnc(N5CCCC5)nc4)cc23)ccc2[nH]ccc12")
156
>>> test_result("CN(C)c1ccc(-c2cncc(C#N)c2Nc2ccc(F)c(F)c2)cc1")
2030

---

pIC50: −log10 of the molar value.
Listed below are compounds with pIC50 for Protein kinase C theta type (Homo sapiens, UniProt Q04759), each taken from published literature.
EXPERIMENTAL ENDPOINT: pIC50

>>> test_result("COc1ccc(Nc2ncc(F)c(NC3CC(C)(C)N(C)C(C)(C)C3)n2)cc1C(F)(F)F")
8.10
>>> test_result("Cc1c(Nc2c(C#N)cnc3sc(/C=C/C(=O)Nc4ccncc4)cc23)ccc2[nH]ccc12")
7.37
>>> test_result("Cc1ncc(C#N)c(Nc2ccc3[nH]ccc3c2C)c1-c1ccc(OCCN2CCC(N3CCCC3)CC2)cc1")
7.51

---

Listed below are molecules with IC50 for Protein kinase C theta type (Homo sapiens, UniProt Q04759), each taken from published literature.
EXPERIMENTAL ENDPOINT: IC50

>>> test_result("CS(=O)(=O)c1ccc(-c2cc3c(Nc4ccc5[nH]ccc5c4)c(C#N)cnc3s2)cc1")
"130 nM"
>>> test_result("CNCC1CCN(c2nc(C3=C(c4c[nH]c5sccc45)C(=O)NC3=O)c3ccccc3n2)C1 (stereo not shown)")
"500 to 1000 nM"
>>> test_result("COc1cc(-c2cnc3[nH]c(=O)n(CC4CCOCC4)c3n2)cc(OC)c1OC")
"> 30000 nM"
>>> test_result("C[C@H](c1ccccc1)n1c(=O)n(C)c2ncc(-c3cccc4ncccc34)nc21")
"> 30000 nM"

---

Listed below are molecules with IC50 for Protein kinase C theta type (Homo sapiens, UniProt Q04759), each taken from published literature.
Lab note - cut at 0.04 µM for IC50: T if strictly below, F if not.

>>> discrete_label("Cn1cncc1-c1cc2c(Nc3ccc4[nH]ccc4c3)c(C#N)cnc2s1")
"F"
>>> discrete_label("Cc1c(Nc2c(C#N)cnc3sc(-c4ccccc4OC[C@H](O)CO)cc23)ccc2[nH]ccc12")
"F"
>>> discrete_label("CN(C)Cc1cccc(C#Cc2cc3c(Nc4ccc5[nH]ccc5c4)c(C#N)cnc3s2)n1")
"F"
>>> discrete_label("COc1ccc(CN(C)C)cc1-c1cc2c(Nc3ccc4[nH]ccc4c3)c(C#N)cnc2s1")
"T"
>>> discrete_label("CCCN1CCN(c2ccc(Nc3ncc(F)c(NC4CC(C)(C)N(C)C(C)(C)C4)n3)cc2Cl)CC1")
"T"
>>> discrete_label("COC/C=C/c1cc2c(Nc3ccc4[nH]ccc4c3C)c(C#N)cnc2s1")
"F"
>>> discrete_label("Cc1c(Nc2c(C#N)cnc3sc(/C=C/CN4CCN(C)CC4)c(C)c23)ccc2[nH]ccc12")
"T"
>>> discrete_label("COc1ccc(CSc2nnc(-c3ccnc(N)c3)o2)cc1F")
"F"
>>> discrete_label("CC(c1ccccc1)n1c(=O)[nH]c2ncc(-c3ccc(NS(C)(=O)=O)cc3)nc21 (stereo not drawn)")
"F"
>>> discrete_label("CN1CCN(Cc2ccc(-c3cc4c(NCCc5c[nH]cn5)c(C#N)cnc4s3)cc2)CC1")
"F"
>>> discrete_label("N#Cc1cnc2sc(-c3ccc(S(N)(=O)=O)cc3)cc2c1Nc1ccc2[nH]ccc2c1")
"F"
>>> discrete_label("N#Cc1cnc2sc(CN3CCCC3)cc2c1Nc1ccc2[nH]ccc2c1")
"F"
>>> discrete_label("N#Cc1cnc2sc(-c3cccc(CO)c3)cc2c1Nc1cccc2[nH]ccc12")
"F"
>>> discrete_label("CN(CCO)Cc1cccc(-c2cc3c(Nc4ccc5[nH]ccc5c4)c(C#N)cnc3s2)c1")
"F"
>>> discrete_label("Cc1c(Nc2c(C#N)cnc3sc(-c4cccc(S(=O)(=O)N(C)C)c4)cc23)ccc2[nH]ccc12")
"F"
>>> discrete_label("Cc1c(Nc2c(C#N)cnc3sc(-c4ccc5cc[nH]c5c4)cc23)ccc2[nH]ccc12")
"T"
>>> discrete_label("CN(C)Cc1cccc(-c2cc3c(Nc4cnc5[nH]ccc5c4Cl)c(C#N)cnc3s2)c1")
"T"
>>> discrete_label("Cc1ncc(C#N)c(Nc2ccc3[nH]ccc3c2C)c1-c1ccc(OCCN2CC(C)NC(C)C2)cc1 (stereo not drawn)")
"T"
>>> discrete_label("Cc1ncc(C#N)c(Nc2ccc3[nH]ccc3c2C)c1-c1cc2ccccc2o1")
"T"
>>> discrete_label("N#Cc1cnc2sc(-c3cccc(CN4CCN(CC(=O)N5CCCC5)CC4)c3)cc2c1Nc1ccc2[nH]ccc2c1")
"F"
>>> discrete_label("N#Cc1cnc2sc(-c3ccccc3)cc2c1-c1ccc2[nH]ccc2c1")
"F"
>>> discrete_label("Cc1ncc(C#N)c(Nc2ccc3[nH]ccc3c2C)c1-c1ccc(OCCN2CCOCC2)cc1")
"F"
>>> discrete_label("CS(=O)(=O)Nc1cccc(-c2cc3c(Nc4ccc5[nH]ccc5c4)c(C#N)cnc3s2)c1")
"F"
>>> discrete_label("COCCOc1cc2ncc3c(N)nc(-n4ccnc4)cc3c2cc1OC")
"F"
>>> discrete_label("Cc1c(Nc2c(C#N)cnc3sc(-c4cccc(Br)c4)cc23)ccc2[nH]ccc12")
"F"
